- MEASURED TARGET: T1, hDcn1^P (PONY domain of human Dcn1 / DCUN1D1 / SCCRO, residues 62 to 259) (Homo sapiens, UniProt Q96GG9 62-259)
- T1 construct: NEDD8 co-E3; Expressed as a GST fusion in E. coli; GST was removed with TEV protease; also called DCUN1D1^P
- T1 sequence (Q96GG9 62-259): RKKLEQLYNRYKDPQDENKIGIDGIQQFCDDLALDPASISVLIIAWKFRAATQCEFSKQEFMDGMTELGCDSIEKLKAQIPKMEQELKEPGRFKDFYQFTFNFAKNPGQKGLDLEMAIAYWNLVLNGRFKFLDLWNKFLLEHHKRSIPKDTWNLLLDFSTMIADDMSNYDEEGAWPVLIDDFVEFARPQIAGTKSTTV
- PROCEDURE TEXT: ITC, peptide titrated into hDcn1^P
Positions of bridges follow the written chain, without caps; N, C: chain ends. Non-standard residues stand in square brackets, D forms with d. S5 = C=CCCC[C@](C)(N)C(=O)O

[
  {
    "BINDER": "Ac-MIKL[S5]SLK[S5]QKK-NH2 (staple 5-9, Printed as Ac-MIKLXSLKXQKK-NH2, X = 2-(4-pentenyl)alanine; Phe5 and Gln9 are replaced) [Acetyl-hUbc12^1-12(5:9Staple) peptide]",
    "Kd, nM": 150
  }
]

Data provenance is patent US20140179593A1.
